target: FPRL-1 (Homo sapiens); construct: expressed in transfected cells; host or cells: CHO-Gα16 cells stably expressing FPRL1; test: FPRL-1 Ga16-CHO compound-induced calcium activity (FLIPR Tetra); assay type: cell-based; details: CHO-Gα16 cells stably expressing FPRL1; calcium activity on FLIPR Tetra; tested at 0.61 to 10,000 nM; read-out: FPRL-1 Ga16-CHO EC50
observed.property: EC50 (nM)

Answered cases to consult:
compound	EC50 [nM]
O=C(Nc1ccc(Br)cc1F)NN1C(=O)NC2(CCc3ccccc3C2)C1=O (centres unmarked)	191
CC1(CCc2ccc(O)c(F)c2)NC(=O)N(NC(=O)Nc2ccc(Br)cc2F)C1=O (centres unmarked)	7.4

I: CC(C)C1(CC(=O)NCC(=O)OC(C)(C)C)NC(=O)N(NC(=O)Nc2ccc(Br)cc2)C1=O (centres unmarked)
II: CC(C)C1(CC(=O)NC(C)(C)C(=O)O)NC(=O)N(NC(=O)Nc2ccc(Br)cc2)C1=O (centres unmarked)
Short answer wanted: higher EC50, I or II ? Choose, then provide that item's label.
I
(I: 302 nM, II: 109 nM)

====

Target: FPRL-1 (Homo sapiens, UniProt P25090)
Construct: expressed in transfected cells; host or cells: CHO-Gα16 cells stably expressing FPRL1
Sequence (P25090 1-351): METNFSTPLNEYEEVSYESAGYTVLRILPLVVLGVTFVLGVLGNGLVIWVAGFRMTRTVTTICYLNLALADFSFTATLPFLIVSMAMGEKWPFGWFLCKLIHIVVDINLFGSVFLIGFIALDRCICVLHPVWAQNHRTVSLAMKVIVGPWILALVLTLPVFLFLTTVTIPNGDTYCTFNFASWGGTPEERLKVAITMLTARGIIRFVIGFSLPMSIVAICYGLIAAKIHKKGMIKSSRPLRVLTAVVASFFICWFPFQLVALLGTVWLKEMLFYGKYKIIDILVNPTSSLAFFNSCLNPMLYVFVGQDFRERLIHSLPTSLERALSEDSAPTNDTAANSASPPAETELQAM
Assay: FPRL-1 Ga16-CHO compound-induced calcium activity (FLIPR Tetra)
Assay type: cell-based
Conditions: FPRL-1 Ga16-CHO EC50, CHO-Gα16 cells stably expressing FPRL1; calcium activity on FLIPR Tetra; tested at 0.61 to 10,000 nM
Listing of recorded EC50 by entry.
Give the value in nM but do not write nM after it.

Answered cases to consult:
molecule	target.or.test.system	EC50, nM
CCOP(=O)(CNC(=O)CC1(C(C)C)NC(=O)N(NC(=O)Nc2ccc(Br)cc2)C1=O)OCC (stereo not drawn) [Compound 86]	FPRL-1 (Homo sapiens, UniProt P25090)	272
CCC1(CCc2ccccc2C(=O)OC)NC(=O)N(NC(=O)Nc2ccc(Br)cc2)C1=O (stereo not drawn) [Compound 60]	FPRL-1 (Homo sapiens, UniProt P25090)	10.3

Next molecule, please.
Specify reported EC50 for the molecule shown: CCOP(=O)(O)CNC(=O)CC1(C(C)C)NC(=O)N(NC(=O)Nc2ccc(Br)cc2)C1=O (stereo not drawn) [Compound 89]
313

====

Biological target: FPRL-1 (Homo sapiens, UniProt P25090)
Construct: expressed in transfected cells; host or cells: CHO-Gα16 cells stably expressing FPRL1
Sequence (P25090 1-351): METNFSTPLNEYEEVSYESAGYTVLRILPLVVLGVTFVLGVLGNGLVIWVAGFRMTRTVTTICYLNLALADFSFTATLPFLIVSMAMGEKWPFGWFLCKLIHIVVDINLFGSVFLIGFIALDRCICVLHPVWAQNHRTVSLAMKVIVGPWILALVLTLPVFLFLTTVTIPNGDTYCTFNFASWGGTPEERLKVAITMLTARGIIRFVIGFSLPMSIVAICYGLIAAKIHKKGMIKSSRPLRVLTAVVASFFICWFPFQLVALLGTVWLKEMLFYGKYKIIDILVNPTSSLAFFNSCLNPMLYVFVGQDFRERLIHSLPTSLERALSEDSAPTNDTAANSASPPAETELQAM
Test: FPRL-1 Ga16-CHO compound-induced calcium activity (FLIPR Tetra)
Assay type: cell-based
Conditions: CHO-Gα16 cells stably expressing FPRL1; calcium activity on FLIPR Tetra; tested at 0.61 to 10,000 nM; read-out: FPRL-1 Ga16-CHO EC50
observed.property: EC50 (nM)

a: CC(C)C1(CO)NC(=O)N(NC(=O)Nc2ccc(Br)cc2F)C1=O (centres unmarked)
b: CC(C)C1(CC(=O)O)NC(=O)N(NC(=O)Nc2ccc(Br)cc2)C1=O (centres unmarked)
Short answer wanted: higher EC50, a or b ? Choose, then provide that item's label.
b
(b: 459 nM, a: 50 nM)

a: CC(C)OP(=O)(CNC(=O)CC1(C(C)C)NC(=O)N(NC(=O)Nc2ccc(Br)cc2)C1=O)OC(C)C (centres unmarked)
b: CCC1(CCc2ccccc2C(=O)O)NC(=O)N(NC(=O)Nc2ccc(Br)cc2F)C1=O (centres unmarked)
Short answer wanted: higher EC50, a or b ? Choose, then provide that item's label.
a

1: CC1(CCc2ccncc2)NC(=O)N(NC(=O)Nc2ccc(Br)cc2)C1=O (centres unmarked)
2: CC1(CCc2ccc(F)cc2)NC(=O)N(NC(=O)Nc2ccc(Br)cc2)C1=O (centres unmarked)
3: CC1(CCc2ccc(Cl)cc2)NC(=O)N(NC(=O)Nc2ccc(Br)cc2)C1=O (centres unmarked)
4: COC(=O)c1ccc(CCC2(C)NC(=O)N(NC(=O)Nc3ccc(Br)cc3)C2=O)cc1 (centres unmarked)
Rank descending by EC50. As an answer, provide the labels arranged in the order called for.
3, 4, 1, 2
(3: 333 nM, 4: 204 nM, 1: 30.2 nM, 2: 17 nM)

I: Cc1ccc(CCC2(C)NC(=O)N(NC(=O)Nc3ccc(Br)cc3)C2=O)o1 (centres unmarked)
II: CC1(CCc2ccc(C(=O)O)cc2)NC(=O)N(NC(=O)Nc2ccc(Br)cc2)C1=O (centres unmarked)
Param metric = EC50; output whichever of I , II has the minimum value. Choose, then provide that item's label.
I

====

Molecular target: FPRL-1 (Homo sapiens)
Construct: expressed in transfected cells; host or cells: CHO-Gα16 cells stably expressing FPRL1
Experiment: FPRL-1 Ga16-CHO compound-induced calcium activity (FLIPR Tetra)
Assay type: cell-based
Conditions: CHO-Gα16 cells stably expressing FPRL1; calcium activity on FLIPR Tetra; tested at 0.61 to 10,000 nM; read-out: FPRL-1 Ga16-CHO EC50
Method: HEK-Gα16 and CHO-Gα16 cells stably expressing FPRL1 were cultured in (F12, 10% FBS, 1% PSA, 400 μg/ml geneticin and 50 μg/ml hygromycin) and HEK-Gqi5 cells stable expressing FPR1 were cultured in (DMEM high glucose, 10% FBS, 1% PSA, 400 μg/ml geneticin and 50 μg/ml hygromycin). In general, the day before the experiment, 18,000 cells/well were plated in a 384-well clear bottom poly-d-lysine coated plate. […] Results are expressed as EC50 (nM) and efficacy values.
observed.property: EC50 (nM)

A: CC1(CCc2ccncc2)NC(=O)N(NC(=O)Nc2ccc(Br)cc2F)C1=O (centres unmarked)
B: CC1(CCc2ccccc2O)NC(=O)N(NC(=O)Nc2ccc(Br)cc2F)C1=O (centres unmarked)
C: CCC1(CC)NC(=O)N(NC(=O)Nc2ccc(OC)cc2)C1=O
D: CCC1(CC)NC(=O)N(NC(=O)Nc2ccc(C)cc2)C1=O
Task for the reader: place the compounds above in descending order according to recorded EC50. As an answer, provide the labels arranged in the order called for.
C, D, A, B

====

biological target: FPRL-1 (Homo sapiens, UniProt P25090); construct: expressed in transfected cells; host or cells: CHO-Gα16 cells stably expressing FPRL1; experiment: FPRL-1 Ga16-CHO compound-induced calcium activity (FLIPR Tetra); type: cell-based; details: CHO-Gα16 cells stably expressing FPRL1; calcium activity on FLIPR Tetra; tested at 0.61 to 10,000 nM; read-out: FPRL-1 Ga16-CHO EC50
observed.property: EC50 (nM)

Answered cases to consult:
compound	target.or.test.system	EC50, nM
CC(C)C1(CC(=O)NCC(N)=O)NC(=O)N(NC(=O)Nc2ccc(Br)cc2)C1=O (stereo not drawn)	FPRL-1 (Homo sapiens, UniProt P25090)	51.3
O=C(Nc1ccc(Br)cc1)NN1C(=O)NC2(CCc3ccccc3C2)C1=O (stereo not drawn)	FPRL-1 (Homo sapiens, UniProt P25090)	53.5
CC1(CCc2cccs2)NC(=O)N(NC(=O)Nc2ccc(Br)cc2F)C1=O (stereo not drawn)	FPRL-1 (Homo sapiens, UniProt P25090)	86
CC1(CCc2ccc(Cl)cc2)NC(=O)N(NC(=O)Nc2ccc(Br)cc2F)C1=O (stereo not drawn)	FPRL-1 (Homo sapiens, UniProt P25090)	1380
CC1(CCc2ccc(O)cc2)NC(=O)N(NC(=O)Nc2ccc(Br)cc2)C1=O (stereo not drawn)	FPRL-1 (Homo sapiens, UniProt P25090)	13.3
CC(C)C1(CC(=O)NC(CO)CO)NC(=O)N(NC(=O)Nc2ccc(Br)cc2)C1=O (stereo not drawn)	FPRL-1 (Homo sapiens, UniProt P25090)	16.2
CC1(COc2ccccc2)NC(=O)N(NC(=O)Nc2ccc(Br)cc2)C1=O (stereo not drawn)	FPRL-1 (Homo sapiens, UniProt P25090)	22.1
CC1(CCc2ccccc2C(=O)O)NC(=O)N(NC(=O)Nc2ccc(Br)cc2)C1=O (stereo not drawn)	FPRL-1 (Homo sapiens, UniProt P25090)	17.2
CCC1(CCc2ccccc2)NC(=O)N(NC(=O)Nc2ccc(Br)cc2)C1=O (stereo not drawn)	FPRL-1 (Homo sapiens, UniProt P25090)	0.5
CC1(CCc2cccs2)NC(=O)N(NC(=O)Nc2ccc(Br)cc2)C1=O (stereo not drawn)	FPRL-1 (Homo sapiens, UniProt P25090)	7.9

I: CC(C)C1(CO)NC(=O)N(NC(=O)Nc2ccc(Br)cc2)C1=O (stereo not drawn)
II: CC(C)C1(CC(=O)NCCC(=O)OC(C)(C)C)NC(=O)N(NC(=O)Nc2ccc(Br)cc2)C1=O (stereo not drawn)
Param metric = EC50; output whichever of I , II has the minimum value. Choose, then provide that item's label.
I

A: O=C(Nc1ccc(Br)cc1)NN1C(=O)NC2(Cc3ccccc3C2)C1=O
B: CC(C)C1(CCO)NC(=O)N(NC(=O)Nc2ccc(Br)cc2)C1=O (stereo not drawn)
C: CC1(CCc2cccc(F)c2)NC(=O)N(NC(=O)Nc2ccc(Br)cc2)C1=O (stereo not drawn)
D: CC(C)CC1(CCc2ccccc2)NC(=O)N(NC(=O)Nc2ccc(Br)cc2)C1=O (stereo not drawn)
E: CCC1(C(C)C)NC(=O)N(NC(=O)Nc2ccc(Br)cc2F)C1=O (stereo not drawn)
List by increasing EC50. As an answer, provide the labels arranged in the order called for.
E, C, B, A, D

meta.source: patent US20130123215A1
